The measured values listed here are drawn from the supplement of paper PMC10567573.

In this section, each of the variants is paired with its reported protein stability index.
B1: CHIT1 (parent)
chain: CSWKGATKQRIQDQKVPYIFRDNQ

variants of: B1; test: protein stability index of a GFP-peptide fusion (GPS, HEK-293T) (PSI 1-6); higher = more stable; conditions: c terminus: a fixed tail appended;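 note: lentivirally expressed fusions sorted by FACS into six bins by GFP to DsRed ratio, PSI derived from sequencing read proportions per bin multiplied by bin number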
# output: bare number, no unit

1) F20N ... 2.93
2) N23K ... 3.05
3) I19H ... 3.02

Query string: Reported protein stability index for T7H : what is it?
Result string: 2.91

Query string: Try R21N next.
Result string: 3.09

Query string: Thanks! And R21V ?
Result string: 1.96
